Target: ZAP-70 (Homo sapiens, UniProt P43403)
Construct: endogenous in cells
Sequence (P43403 whole entry): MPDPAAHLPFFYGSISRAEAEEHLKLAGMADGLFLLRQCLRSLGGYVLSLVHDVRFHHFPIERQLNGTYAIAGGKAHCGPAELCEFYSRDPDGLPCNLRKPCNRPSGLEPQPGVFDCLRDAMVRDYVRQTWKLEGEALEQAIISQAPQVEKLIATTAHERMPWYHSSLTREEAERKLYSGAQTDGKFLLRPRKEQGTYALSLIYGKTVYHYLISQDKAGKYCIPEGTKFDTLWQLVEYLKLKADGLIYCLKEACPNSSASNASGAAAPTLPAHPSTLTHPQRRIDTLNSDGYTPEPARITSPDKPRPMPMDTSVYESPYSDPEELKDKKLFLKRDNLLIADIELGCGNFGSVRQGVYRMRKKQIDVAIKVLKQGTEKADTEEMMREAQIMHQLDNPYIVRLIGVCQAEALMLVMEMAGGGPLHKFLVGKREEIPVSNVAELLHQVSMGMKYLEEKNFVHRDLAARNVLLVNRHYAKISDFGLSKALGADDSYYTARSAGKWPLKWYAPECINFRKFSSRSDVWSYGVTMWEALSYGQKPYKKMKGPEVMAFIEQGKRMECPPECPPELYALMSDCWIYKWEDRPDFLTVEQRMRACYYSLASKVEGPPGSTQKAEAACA
Experiment: ZAP-70 kinobeads assay
Conditions: cell lysate
pIC50: −log10 of the molar value. Counter-ions that a name gives are not always drawn.
So I've got a bunch of compounds here, and I need their pIC50 values.

**Q:** What value of pIC50 has been reported for the following compound? "COc1ccc(OCCO)cc1Nc1ncc(F)c(Nc2ccccc2NS(C)(=O)=O)n1"
**A:** 5.00 to 6.00

**Q:** Could you tell me which pIC50 is on file for "COc1ccccc1Nc1ncc(F)c(Nc2ccccc2NS(C)(=O)=O)n1" ?
**A:** 5.00 to 6.00

**Q:** Look up pIC50: "COc1ccc(OCCO)cc1Nc1ncc(F)c(Nc2cccc(C)c2NS(C)(=O)=O)n1"
**A:** 5.00 to 6.00

**Q:** Consider the compound "COc1ccc(C)c(Nc2ncc(F)c(Nc3ccccc3NS(C)(=O)=O)n2)c1" and give its measured pIC50.
**A:** 5.00 to 6.00

**Q:** Could you share which pIC50 value was measured for "COc1ccc(Nc2nc(Nc3cc(C)ccc3F)ncc2Cl)c(NS(C)(=O)=O)c1" ?
**A:** 6.00 to 7.00

**Q:** What measured pIC50 goes with "COc1ccc(Nc2nc(Nc3cc(OCCN)ccc3F)ncc2Cl)c(NS(C)(=O)=O)c1" ?
**A:** 6.00 to 7.00

**Q:** # pIC50 lookup, item "COc1ccc(Nc2nc(Nc3cc(F)ccc3OC)ncc2Cl)c(NS(C)(=O)=O)c1"
**A:** 6.00 to 7.00

**Q:** pIC50 for "COc1ccc(Nc2nc(Nc3cc(C)c(OC)cc3OC)ncc2Cl)c(NS(C)(=O)=O)c1" ?
**A:** 6.00 to 7.00

**Q:** I have this compound here, "COc1ccc(Nc2nc(Nc3cc(OCC(C)(C)O)ccc3OC)ncc2Cl)c(NS(C)(=O)=O)c1" , and I need its recorded pIC50.
**A:** 5.00 to 6.00

**Q:** What does the data say about its pIC50? Entry: COc1ccc(Nc2nc(Nc3ccccc3C)ncc2Cl)c(NS(C)(=O)=O)c1 [Example 50, hydrochloride]
**A:** 6.00 to 7.00

**Q:** // pIC50 lookup, key: "COc1ccc(Nc2nc(Nc3cncc(OC)c3OC)ncc2Cl)c(NS(C)(=O)=O)c1"
**A:** 5.00 to 6.00

**Q:** Form field: reported pIC50 of "COc1ccc(Nc2nc(Nc3cc(OC)c(CC(=O)O)cc3OC)ncc2Cl)c(NS(C)(=O)=O)c1"
**A:** ≥ 7.00

**Q:** # lookup: pIC50 of "CS(=O)(=O)Nc1ccccc1Nc1nc(Nc2ccccc2F)ncc1F"
**A:** 5.00 to 6.00

**Q:** Given "COc1ccc(Nc2nc(Nc3cccc(OCCC(F)(F)F)c3C)ncc2Cl)c(NS(C)(=O)=O)c1" , state its recorded pIC50.
**A:** 6.00 to 7.00

**Q:** Fill blank: measured pIC50 of the compound "COc1ccc(Nc2nc(Nc3ccc(F)c(F)c3OC)ncc2Cl)c(NS(C)(=O)=O)c1" is ____.
**A:** 5.00 to 6.00

**Q:** Endpoint output: pIC50 of "COc1ccc(Nc2nc(Nc3cc(OC)c(OC)cc3C)ncc2Cl)c(NS(C)(=O)=O)c1" . Value?
**A:** ≥ 7.00

**Q:** # pIC50 lookup, item "COc1ccc(Nc2nc(Nc3cccnc3OC)ncc2Cl)c(NS(C)(=O)=O)c1"
**A:** 6.00 to 7.00

**Q:** Given the compound "COc1ccc(OCCO)cc1Nc1ncc(Cl)c(Nc2cccc(OC)c2NS(C)(=O)=O)n1" , what is its reported pIC50?
**A:** 6.00 to 7.00

**Q:** # lookup: pIC50 of "COc1ccc(Nc2nc(Nc3cnc(OC)cc3C)ncc2Cl)c(NS(C)(=O)=O)c1"
**A:** 6.00 to 7.00

**Q:** Please look up its pIC50: CS(=O)(=O)Nc1ccccc1Nc1nc(Nc2ccccc2Cl)ncc1Br [Example 18, hydrochloride]
**A:** 5.00 to 6.00

**Q:** Item under review: "COc1cccc(Nc2ncc(Br)c(Nc3ccccc3NS(C)(=O)=O)n2)c1OC" . Reported pIC50?
**A:** 5.00 to 6.00

**Q:** Need pIC50 of COc1ccc(OC)c(Nc2ncc(Cl)c(Nc3ccccc3NS(C)(=O)=O)n2)c1 [Example 16, hydrochloride] , thanks.
**A:** 6.00 to 7.00

**Q:** Can you look up the measured pIC50 of "COc1ccc(Nc2nc(Nc3cnc(OCCO)cc3OC)ncc2Cl)c(NS(C)(=O)=O)c1" for me?
**A:** ≥ 7.00

**Q:** Quick check: pIC50 of "COc1ccc(OCCO)cc1Nc1ncc(Cl)c(Nc2ccccc2NS(C)(=O)=O)n1" ?
**A:** 6.00 to 7.00

**Q:** Given Cc1ccccc1Nc1ncc(Br)c(Nc2ccccc2NS(C)(=O)=O)n1 [Example 24, hydrochloride] , state its recorded pIC50.
**A:** 6.00 to 7.00

Hey, just so you know, these numbers are from patent US20120142667A1.
